Tested on: Candida albicans ATCC 10231
TEST SUMMARY: Disk diffusion agar antimicrobial activity, C. albicans
Assay type: cell-based
EXPERIMENTAL SETUP: 25 mg/ml, 30° C. for 48 hours, mean values
Listed below: Bacterial and fungal growth inhibition zone diameter (mm), C. albicans values for each entry.
Numbers only; they are read as mm.

Observe how each entry below is paired with its result.
1) CC12CCC(=NN=C3NC(=O)C(CC(=O)Nc4ccc(Cl)cc4)S3)C=C1CCC1C2CCC2(C)C(O)CCC12 (stereo not shown) [Compound III Ar = 4-ClC6H4]
41
2) COC(=O)/C=C1/S/C(=N\N=C2\C=C3CC[C@H]4[C@@H]5CC[C@H](O)[C@@]5(C)CC[C@@H]4[C@@]3(C)CC2)NC1=O [Compound II]
29
3) CC12CCC(=NN=C3NC(=O)C(CC(=O)NCc4ccccc4)S3)C=C1CCC1C2CCC2(C)C(O)CCC12 (stereo not shown) [Compound III Ar = CH2C6H4]
21

Problem: # return recorded Bacterial and fungal growth inhibition zone diameter (mm), C. albicans for input CC12CCC(=NN=C3NC(=O)C(CC(=O)Nc4ccccc4)S3)C=C1CCC1C2CCC2(C)C(O)CCC12 (stereo not shown) [Compound III Ar = C6H5]
Solution: 36

---

Entries and their measured Bacterial and fungal growth inhibition zone diameter (mm), E. coli follow.
Tested on: Escherichia coli ATCC 25933
TEST SUMMARY: Disk diffusion agar antimicrobial activity, E. coli
Format: cell-based
EXPERIMENTAL SETUP: 25 mg/ml, 37° C. for 24 hours, mean values
Report the value in mm with no unit label.

Check out these entries, answers already filled in.
1) CC12CCC(=NN=C3NC(=O)C(CC(=O)Nc4ccccc4)S3)C=C1CCC1C2CCC2(C)C(O)CCC12 (stereo not shown)
32
2) CC12CCC(=NN=C3NC(=O)C(CC(=O)NCc4ccccc4)S3)C=C1CCC1C2CCC2(C)C(O)CCC12 (stereo not shown)
17
3) CC12CCC(=NN=C3NC(=O)C(CC(=O)Nc4ccc(Cl)cc4)S3)C=C1CCC1C2CCC2(C)C(O)CCC12 (stereo not shown)
39

Kindly consider the entry below.
Problem: Supply Bacterial and fungal growth inhibition zone diameter (mm), E. coli value. Item: COC(=O)/C=C1/S/C(=N\N=C2\C=C3CC[C@H]4[C@@H]5CC[C@H](O)[C@@]5(C)CC[C@@H]4[C@@]3(C)CC2)NC1=O
Solution: 26

Each recorded value in this set is attributed to patent US12358943B1.
